Entry source: paper PMC6326523

# System Tested: full-length WRN helicase (Homo sapiens)
# Construct: Full length recombinant WRN [18], BLM [19], and FANCJ [20] proteins were purified from insect cells; made in house; host or cells: insect cells
# Run Description: Radiometric helicase inhibitor reversibility assay (100-fold dilution)
# Type: biochemical
# Set-up: key: (-) = irreversible; (+) = minimally reversible; (++) = partially reversible; (+++) = reversible
# Condition Parameters: WRN 100 nM preincubated at 10-fold IC50, diluted 100-fold; unwinding 0-16 min
Measured Quantity: Reversibility

>  <Molecule>
COC(=O)c1cc(NC(=O)c2ccc3c(c2)NC(=O)c2ccccc2S3)cc(C(=O)OC)c1 [NCGC00113056-02]

>  <Reported>
+

$$$$
>  <Molecule>
COc1ccccc1Nc1ccc2c(O)cc(S(=O)(=O)O)cc2c1 [MLS002608028-02]

>  <Reported>
+++

$$$$
>  <Molecule>
Cc1ccc(-c2csc(NS(=O)(=O)c3cccc(F)c3)n2)o1 [MLS002251300-02]

>  <Reported>
++

$$$$
>  <Molecule>
O=C(c1cccc(-n2cccc2)c1)N1CCN(S(=O)(=O)c2ccccc2)CC1 [MLS001139594-03]

>  <Reported>
-

$$$$

----------
# System Tested: full-length WRN helicase (Homo sapiens)
# Construct: Full length recombinant WRN [18], BLM [19], and FANCJ [20] proteins were purified from insect cells; made in house; host or cells: insect cells
# Run Description: Radiometric helicase inhibitor reversibility assay (100-fold dilution)
# Type: biochemical
# Condition Parameters: full-length WRN

>  <Mol>
Cc1ccc(C(=O)Nc2nnc([S+](=O)([O-])N(C)Cc3ccco3)s2)cc1

>  <Reversibility of inhibition (in words)>
irreversible

$$$$
>  <Mol>
CN(Cc1ccco1)[S+](=O)([O-])c1nnc(NC(=O)c2cccc(Cl)c2)s1

>  <Reversibility of inhibition (in words)>
irreversible

$$$$

----------
# System Tested: full-length WRN helicase (Homo sapiens, UniProt Q14191)
# Construct: Full length recombinant WRN [18], BLM [19], and FANCJ [20] proteins were purified from insect cells; made in house; host or cells: insect cells
# Sequence (Q14191 whole entry): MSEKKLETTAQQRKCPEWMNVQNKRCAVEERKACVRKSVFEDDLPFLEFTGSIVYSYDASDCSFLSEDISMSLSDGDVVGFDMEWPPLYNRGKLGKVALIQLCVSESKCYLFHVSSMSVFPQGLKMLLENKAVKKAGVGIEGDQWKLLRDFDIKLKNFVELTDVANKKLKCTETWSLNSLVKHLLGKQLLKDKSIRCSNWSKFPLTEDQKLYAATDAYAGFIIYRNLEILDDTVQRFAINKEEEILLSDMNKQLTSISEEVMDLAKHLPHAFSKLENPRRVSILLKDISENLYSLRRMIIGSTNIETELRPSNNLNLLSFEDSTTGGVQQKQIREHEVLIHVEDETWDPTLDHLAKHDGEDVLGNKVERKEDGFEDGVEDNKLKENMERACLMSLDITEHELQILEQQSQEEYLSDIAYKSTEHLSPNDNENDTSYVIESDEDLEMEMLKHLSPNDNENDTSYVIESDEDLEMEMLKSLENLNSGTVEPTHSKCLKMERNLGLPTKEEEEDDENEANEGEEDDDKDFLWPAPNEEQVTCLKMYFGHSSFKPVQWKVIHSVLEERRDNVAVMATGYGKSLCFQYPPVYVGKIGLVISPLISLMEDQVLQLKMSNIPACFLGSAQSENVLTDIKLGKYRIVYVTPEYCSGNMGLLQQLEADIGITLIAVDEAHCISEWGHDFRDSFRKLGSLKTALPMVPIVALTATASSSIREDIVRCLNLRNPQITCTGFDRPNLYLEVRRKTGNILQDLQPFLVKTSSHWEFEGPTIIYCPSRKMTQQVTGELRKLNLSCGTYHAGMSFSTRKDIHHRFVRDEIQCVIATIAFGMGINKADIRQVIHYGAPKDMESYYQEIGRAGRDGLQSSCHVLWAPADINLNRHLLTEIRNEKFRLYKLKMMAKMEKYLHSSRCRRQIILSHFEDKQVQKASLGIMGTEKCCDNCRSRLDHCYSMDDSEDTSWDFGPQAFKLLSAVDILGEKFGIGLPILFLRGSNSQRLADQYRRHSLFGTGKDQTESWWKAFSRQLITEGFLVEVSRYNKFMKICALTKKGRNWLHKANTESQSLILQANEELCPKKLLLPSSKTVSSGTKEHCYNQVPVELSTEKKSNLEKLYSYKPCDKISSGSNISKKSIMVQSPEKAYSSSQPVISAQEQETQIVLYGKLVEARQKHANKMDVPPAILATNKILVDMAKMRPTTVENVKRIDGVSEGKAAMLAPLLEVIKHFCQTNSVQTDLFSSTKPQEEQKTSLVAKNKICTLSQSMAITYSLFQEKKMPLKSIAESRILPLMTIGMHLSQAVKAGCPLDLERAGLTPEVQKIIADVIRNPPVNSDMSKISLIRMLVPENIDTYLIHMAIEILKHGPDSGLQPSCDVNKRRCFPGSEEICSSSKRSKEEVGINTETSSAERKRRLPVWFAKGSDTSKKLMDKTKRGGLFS
# Run Description: Radiometric helicase inhibitor assay, full-length WRN unwinding of FORKR DNA substrate
# Format: biochemical
# Condition Parameters: radiometric assay; full-length WRN 1 nM; FORKR 0.5 nM; compound 0-100 μM; read-out: IC50
pIC50: −log10 of the molar value.
Everything with pIC50 lower than 5 is not fulfilled; everything else, including exactly 5, is fulfilled.

Look over these answered cases.
>  <Compound>
CC1=C(C(=O)Nc2ccccc2)C(c2ccc[nH]2)n2ncnc2N1 (stereo not shown)

>  <Label>
not fulfilled

$$$$
>  <Compound>
O=c1cc(N2CCNCC2)nc2sc(-c3ccncc3)nn12

>  <Label>
fulfilled

$$$$
>  <Compound>
COc1ccccc1Nc1ccc2c(O)cc(S(=O)(=O)O)cc2c1

>  <Label>
fulfilled

$$$$

Kindly consider the entry below.
Could you tell me if the measured pIC50 of COC(=O)c1cc(NC(=O)c2ccc3c(c2)NC(=O)c2ccccc2S3)cc(C(=O)OC)c1 reaches 5 or more? fulfilled

----------
IC50 reference
# System Tested: GST-WRN500-946 helicase domain fragment (Homo sapiens, UniProt Q14191)
# Construct: made in house; host or cells: insect cells
# Sequence (Q14191 500-946): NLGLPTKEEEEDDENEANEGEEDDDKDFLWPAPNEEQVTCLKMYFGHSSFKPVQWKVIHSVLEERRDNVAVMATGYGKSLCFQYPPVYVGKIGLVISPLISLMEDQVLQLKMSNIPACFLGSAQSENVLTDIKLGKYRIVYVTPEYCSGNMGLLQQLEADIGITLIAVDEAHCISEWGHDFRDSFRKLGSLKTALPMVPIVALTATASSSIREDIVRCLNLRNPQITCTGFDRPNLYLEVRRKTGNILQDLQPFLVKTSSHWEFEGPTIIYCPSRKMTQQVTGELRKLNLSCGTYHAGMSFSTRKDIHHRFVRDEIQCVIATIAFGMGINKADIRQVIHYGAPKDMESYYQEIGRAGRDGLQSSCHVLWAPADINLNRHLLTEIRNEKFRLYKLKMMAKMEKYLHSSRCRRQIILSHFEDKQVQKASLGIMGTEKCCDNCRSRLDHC
# Run Description: High-throughput fluorometric helicase screen, PubChem AID 651768
# Assay type: biochemical
# Condition Parameters: initial qHTS; 20 nM GST-WRN500-946; 100 nM FORKF; NA = Not Active; read-out: IC50 (μM) Assay ID 651768
Entry rule: numbers only, all in µM.

// IC50 lookup, molecule = CC1=C(C(=O)Nc2ccccc2)C(c2ccc[nH]2)n2ncnc2N1 (stereo not drawn) , result: 11.9

IC50 reading for O=C(c1cccc(-n2cccc2)c1)N1CCN(S(=O)(=O)c2ccccc2)CC1 : 4.7

Query COc1ccc2nc(O)c(-c3noc(-c4ccc(F)cc4)n3)cc2c1 yields IC50 of 50

The recorded IC50 for COc1ccccc1Nc1ccc2c(O)cc(S(=O)(=O)O)cc2c1 is 2.7

According to the records, this molecule CC(C)(C)c1ccc(-c2nc(SCCCOc3ccccc3)n3[nH]c(=O)cc3n2)cc1 displays IC50 of 50.1

The recorded IC50 for entry CN(Cc1ccco1)[S+](=O)([O-])c1nnc(NC(=O)c2cccc(Cl)c2)s1 equals 39.8

----------
# System Tested: full-length WRN helicase (Homo sapiens)
# Construct: Full length recombinant WRN [18], BLM [19], and FANCJ [20] proteins were purified from insect cells; made in house; host or cells: insect cells
# Run Description: Radiometric helicase inhibitor assay, full-length WRN unwinding of FORKR DNA substrate;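 note: WRN preincubated with compound 15 min at room temperature, then unwinding run 15 min at 37 °C with 2 mM ATP, relative to WRN unwinding without compound (100%)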
# Format: biochemical
# Condition Parameters: radiometric assay; full-length WRN 1 nM; FORKR 0.5 nM; compound 0-100 μM; read-out: IC50
Form field: pIC50 (one value per entry).
# pIC50 is unitless: minus log10 of the molar concentration; print number only

Consider the worked cases shown below.
>  <Mol>
Cc1ccc(C(=O)Nc2nnc([S+](=O)([O-])N(C)Cc3ccco3)s2)cc1

>  <System Tested>
full-length WRN helicase (Homo sapiens)

>  <Measured Quantity>
pIC50

>  <Reported>
5.05

$$$$
>  <Mol>
O=C(c1cccc(-n2cccc2)c1)N1CCN(S(=O)(=O)c2ccccc2)CC1

>  <System Tested>
full-length WRN helicase (Homo sapiens)

>  <Measured Quantity>
pIC50

>  <Reported>
5.00

$$$$

Query compound follows.
Per the reported full-length WRN helicase (Homo sapiens) data, Cc1ccc(-c2nc(SCc3ccc(Br)cc3)n3[nH]c(=O)cc3n2)cc1 has pIC50 of 5.05
